Target: T1, Full length rat PICK1 (Protein Interacting with C Kinase-1) (rat, UniProt Q9EP80 1-416)
T1 construct: mature; Residues left by the cleaved tag are not described; also called purified PICK1
T1 sequence (Q9EP80 whole entry): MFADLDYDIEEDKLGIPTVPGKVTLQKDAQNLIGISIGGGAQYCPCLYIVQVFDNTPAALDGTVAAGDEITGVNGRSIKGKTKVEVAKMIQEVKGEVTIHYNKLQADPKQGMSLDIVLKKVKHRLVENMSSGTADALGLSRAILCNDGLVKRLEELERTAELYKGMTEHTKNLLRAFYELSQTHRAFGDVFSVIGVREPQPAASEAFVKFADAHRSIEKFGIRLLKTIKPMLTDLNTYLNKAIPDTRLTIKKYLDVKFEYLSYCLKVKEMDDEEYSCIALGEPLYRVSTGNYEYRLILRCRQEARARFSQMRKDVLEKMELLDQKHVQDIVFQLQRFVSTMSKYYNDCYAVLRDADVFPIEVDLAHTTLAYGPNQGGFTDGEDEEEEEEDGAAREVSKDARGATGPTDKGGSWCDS
Experiment: FP competition on purified PICK1, tracer 5FAM-HWLKV 20 nM; fold change against HWLKV [panel 5 from the left]

| Binder | binding result |
| --- | --- |
| YIIV (also called DAT-C5 variant) | binds |
| YVIV (also called DAT-C5 variant) | binds |
| YIRV (also called DAT-C5 variant) | binds |
